Test system: SNB-19 CNS
assay-text: NCI tumour cell line growth inhibition, 48 h; in the data active means GI50 below about 0.43 µM; inactive means the rest
Choose the fitting class; nothing outside active, inactive is accepted.

Reference set (3 entries):
compound	assigned-category
Nc1ccc(Sc2ccc3c4c2cccc4c(=O)n2c4ccccc4nc32)cc1	inactive
NC(=S)c1cn(C2OC(CO)C(O)C2O)c2ncnc(N)c12 (centres undefined)	active
c1cc[c]([Sn]([O]c2cccc3cccnc23)([c]2ccccc2)[c]2ccccc2)cc1	active

Moving on to another compound below.
Asked: Which result was noted for this compound in the test: CO[C@H]1/C=C/C=C/C=C/C[C@H](OC(=O)[C@@H](C)NC(=O)C2CCCCC2)[C@H](C)[C@@H](O)/C(C)=C\CCC2=CC(=O)C=C(NC(=O)C1)C2=O
Given back: active

###

System: SK-MEL-5 melanoma
assay-text: NCI tumour cell line growth inhibition, 48 h; in the data active = GI50 below about 0.43 µM; inactive = the rest
Choose the fitting class; nothing outside yes = active, no = inactive is accepted.

compound	assigned-category
O=C(N/N=C\c1cc(Br)cc(Br)c1O)N/N=C/c1cc(Br)cc(Br)c1O	no

Asked: Which result was noted for this compound in the test: COc1cc(C2CC(c3cc(Cl)c(C)cc3O)=NN2c2ccc(S(N)(=O)=O)cc2)cc(OC)c1OC (centres undefined)
Given back: no

Asked: Which result was noted for this compound in the test: CN1CCN(Cc2ccc(NC(=O)c3cncc(C#Cc4cncc5[nH]ncc45)c3)cc2C(F)(F)F)CC1
Given back: no

Asked: Which result was noted for this compound in the test: Cn1cc(C2=C(c3cn(C)c4cc(Cl)ccc34)C(=O)NC2=O)c2ccccc21
Given back: yes

Asked: Which result was noted for this compound in the test: O=C(Nc1ccc(I)cc1F)c1cc(F)ccc1O
Given back: yes

Asked: Which result was noted for this compound in the test: C=C1C(=O)O[C@H]2[C@H]1CC/C(COC(=O)c1ccc(Br)cc1)=C\CC[C@@]1(C)O[C@@H]21
Given back: no

Asked: Which result was noted for this compound in the test: Fc1ccc(-c2ncn(C3CCNCC3)c2-c2ccnc(Oc3ccc(Oc4ccccc4)cc3)n2)cc1
Given back: no

Asked: Which result was noted for this compound in the test: CCN(CC)CCn1nc2c3c(cccc3c1=O)-c1ccccc1-2
Given back: no

Asked: Which result was noted for this compound in the test: CO[C@H]1/C=C/C=C/C=C/C[C@H](OC(=O)[C@@H](C)NC(=O)C2CCCCC2)[C@H](C)[C@@H](O)/C(C)=C\CCC2=CC(=O)C=C(NC(=O)C1)C2=O
Given back: yes

###

Test system: HOP-92 NSCLC
assay-text: NCI tumour cell line growth inhibition, 48 h
reported-metric: TGI

Example results:
compound	TGI
Cc1nc(C)c(C(=O)NNC(=O)c2ccccc2)cc1C(=O)NNC(=O)c1ccccc1	> 100 µM
C[C@@H]1CC[C@H]2C(CN(C)CC3=C(C(F)(F)F)O[C@@H]4O[C@@]5(C)CC[C@H]6[C@H](C)CC[C@@H]3[C@@]46OO5)=C(C(F)(F)F)O[C@@H]3O[C@@]4(C)CC[C@@H]1[C@]32OO4	> 94.4 µM
Cn1cc(C2=C(c3cn(C)c4cc(Cl)ccc34)C(=O)NC2=O)c2ccccc21	> 23 µM
BrCC[N+]12CCCN1CCC2	13.7 µM
N#CCCCCCn1c2ccccc2c2c3c(c4c5ccccc5[nH]c4c21)C(=O)N(O)C3=O	5.24 µM

Give measured TGI for every item shown.
1. CSC(=N/N=C(\C)c1ccc(S(=O)(=O)N(C)c2ccccc2)cc1)SC
2. Clc1ccc2c(NCCNc3nc(Cl)nc4ccccc34)ccnc2c1
3. COc1ccc(Nc2ccnc3cc(Cl)ccc23)cc1CN(CCCl)CCCl
4. CCCCCC(=O)OCC1(CO)C/C(=C/CC(C(C)C)C(C)C)C(=O)O1 (configuration not stated)
5. S=C1NC2=C(CCOc3c2ccc2ccccc32)C(c2ccc(Cl)cc2)N1 (configuration not stated)
6. O=C(Nc1ccc(I)cc1F)c1cc(F)ccc1O

Given back:
> 100 µM
3.4 µM
5.53 µM
> 75 µM
> 100 µM
0.504 µM

Give measured TGI for every item shown.
1. O=[N+]([O-])C1(CO)COC2(OC1)c1ccccc1-c1ccccc12
2. N#Cc1nc(C(=O)c2ccccc2)oc1N
3. CCN(CC)c1ccc(/C=C2/NC(=O)NC2=O)cc1
4. COc1ccc2c(-c3csc(-c4c[nH]c5ccccc45)n3)c[nH]c2c1
5. Cc1c(-c2ccnc(N)n2)c2c(n1-c1ccccc1)C(=O)c1ccccc1C2=O
6. COc1nc2ncc([C@@H](O)[C@H](O)CO)nc2c(=O)[nH]1
7. Nc1nc(Cl)cc(NCC2CC(O)(CO)C2)n1 (configuration not stated)

Given back:
1. > 95.7 µM
2. > 100 µM
3. > 93.1 µM
4. 26.4 µM
5. > 100 µM
6. > 100 µM
7. > 100 µM

Give measured TGI for every item shown.
1. C/C(=N/OCCC(=O)O)C1CC1
2. CCOC(=O)C1=C(C)N(c2ccc(Cl)cc2)C2(O)C=CC(=O)C3C(=O)N(c4ccccc4)C(=O)C132 (configuration not stated)
3. CCN(CC)CCC1(C(=O)OC)SCCc2ccc(C)cc21 (configuration not stated)

Given back:
["> 100 µM", "1.96 µM", "> 100 µM"]

Asked: Which TGI is reported with HOP-92 NSCLC for this entry: CCC1C(=O)OCc2c1cc1n(c2=O)Cc2ccccc2-1 (configuration not stated) ?
Given back: > 100 µM

###

Tested on: RXF-631 renal
assay-text: NCI tumour cell line growth inhibition, 48 h
reported-metric: TGI (µM)
One number for each entry, in µM.

compound	u	TGI
CC(C)C(NCc1c2ccccc2nc2ccccc12)C(=O)O (centres undefined)	µM	97.3

The record that follows has no TGI shown yet.
Asked: Item BrCC[N+]12CCCN1CCC2 has what recorded TGI?
Given back: 46.4

###

System: SF-539 CNS
assay-text: NCI tumour cell line growth inhibition, 48 h; in the data active = GI50 below about 0.43 µM; inactive = the rest
Choose the fitting class; nothing outside Yes (active), No (inactive) is accepted.

Reference set (2 entries):
molecule	assigned-category
CCN(Cc1cccc(C)c1)c1ccc(CO)c(Cl)c1	No
COC(=O)C1=C(C)NC(C)=C(C(=O)OC)C1c1ccccc1[N+](=O)[O-]	No

Asked: Which result was noted for this molecule in the test: Cc1ccc(/C=C2\CN(C(=O)CCN3CCC(=NO)CC3)C/C(=C\c3ccc(C)cc3)C2=O)cc1
Given back: No

Asked: Which result was noted for this molecule in the test: O=C(c1nc2ccccc2[nH]1)C1C(c2cccc([N+](=O)[O-])c2)C2CC3CCCCC3N2[C@@]12C(=O)Nc1cc(Cl)ccc12 (stereo partly specified)
Given back: No

Asked: Which result was noted for this molecule in the test: COc1cc2cc(Oc3ccc(NC(=O)Nc4cc(C(F)(F)F)cc(C(F)(F)F)c4)cc3)c(C)nc2cc1OCCN1CCCCC1
Given back: No

Asked: Which result was noted for this molecule in the test: N#CCCCCCn1c2ccccc2c2c3c(c4c5ccccc5[nH]c4c21)C(=O)N(O)C3=O
Given back: No

###

Tested on: UO-31 renal
assay-text: NCI tumour cell line growth inhibition, 48 h
reported-metric: GI50

Example results:
compound	GI50
COC(=O)C1=C(C)NC(C)=C(C(=O)OC)C1c1ccccc1[N+](=O)[O-]	50000 nM
CC(=O)O[C@H]1Cc2c([nH]c3ccccc23)[C@@H](c2ccc(Cl)cc2)N1C(=O)CCNC(C)(C)C	1450 nM
CCCCCCCC(=O)O[C@H]1[C@H]2[C@@H](CC1(C)C)C(=O)[C@]13O[C@H]1C(=O)[C@]1(CO1)[C@]23C	5730 nM
C[C@@H]1CC[C@H]2C(CN(C)CC3=C(C(F)(F)F)O[C@@H]4O[C@@]5(C)CC[C@H]6[C@H](C)CC[C@@H]3[C@@]46OO5)=C(C(F)(F)F)O[C@@H]3O[C@@]4(C)CC[C@@H]1[C@]32OO4	2860 nM
CCOC(=O)CCC(NC(=O)c1ccc(Nc2nc3cc(N)cc(N)c3nc2-c2ccccc2)cc1)C(=O)OCC (stereo unspecified)	> 46600 nM

The record that follows has no GI50 shown yet.
Asked: Which GI50 is reported with UO-31 renal for this entry: Clc1ccc2c(NCCNc3nc(Cl)nc4ccccc34)ccnc2c1 ?
Given back: 1500 nM

###

Kindly supply the reported GI50 values for the records listed here.
Test system: NCI-H522 lung
assay-text: NCI tumour cell line growth inhibition, 48 h

Example results:
compound	measured-on	GI50
CCOC(=O)Nc1ccc2nc(Sc3ccc(Cl)cc3)sc2c1	NCI-H522 lung	2.47 µM
Cn1ccnc1C(=O)/C=C/c1ccc(CC(=O)Nc2cc(F)c(F)c(F)c2)cc1	NCI-H522 lung	2.64 µM
COC(=O)CCCCCCCCC(=O)c1c(C)[nH]c(/C=C2\N=C(c3ccc[nH]3)C=C2OC)c1C	NCI-H522 lung	8.55 µM
COC(=O)C([O][Ge]([CH3])([CH3])[CH3])c1ccccc1 (stereo not given)	NCI-H522 lung	> 100 µM

The record that follows has no GI50 shown yet.
Asked: Item CCc1cc(Nc2nccc(-c3c(-c4ccc(OC)c(C(=O)Nc5c(F)cccc5F)c4)nc4ccccn34)n2)c(OC)cc1N1CCC(N2CCN(S(C)(=O)=O)CC2)CC1 has what recorded GI50?
Given back: > 100 µM
